What t1/2 was measured for each of the following?
Molecular target: T1, Human IL2Rγ extracellular domain expressed with a C-terminal myc-myc-hexahistidine tag (human)
T1 construct: also called hIL-2Rg-MMH; hIL-2RG-MMH
T1 chain: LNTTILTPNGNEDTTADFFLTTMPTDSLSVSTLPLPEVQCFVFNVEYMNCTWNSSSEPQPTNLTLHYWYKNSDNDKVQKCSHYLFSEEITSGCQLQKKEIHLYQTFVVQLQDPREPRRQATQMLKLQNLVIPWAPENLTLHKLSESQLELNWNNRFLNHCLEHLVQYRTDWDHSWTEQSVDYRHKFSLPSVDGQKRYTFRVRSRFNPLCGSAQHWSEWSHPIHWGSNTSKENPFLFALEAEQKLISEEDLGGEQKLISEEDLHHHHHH
Experiment: SPR, captured mAb, 37C, dissociation pH 7.4
One number for each entry, in min.

INSERT INTO measurements (binder, recorded_number) VALUES
  ('H4H12886P (antibody, human IgG4 S228P, kappa, V domains shown, anti-IL2Rgamma mAb expressed with human IgG4 Fc) VH: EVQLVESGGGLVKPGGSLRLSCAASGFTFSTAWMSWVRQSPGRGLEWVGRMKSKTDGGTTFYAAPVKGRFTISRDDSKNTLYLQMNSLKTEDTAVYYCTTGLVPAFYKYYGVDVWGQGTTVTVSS VL: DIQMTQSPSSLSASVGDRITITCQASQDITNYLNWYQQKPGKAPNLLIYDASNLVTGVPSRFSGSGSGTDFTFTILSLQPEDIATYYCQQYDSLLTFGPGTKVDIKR', 22),
  ('H4H12890P (antibody, human IgG4 S228P, kappa, V domains shown, anti-IL2Rgamma mAb expressed with human IgG4 Fc) VH: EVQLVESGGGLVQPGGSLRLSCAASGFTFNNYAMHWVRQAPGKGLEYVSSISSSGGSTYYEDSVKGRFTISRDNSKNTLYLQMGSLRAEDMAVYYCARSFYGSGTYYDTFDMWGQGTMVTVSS VL: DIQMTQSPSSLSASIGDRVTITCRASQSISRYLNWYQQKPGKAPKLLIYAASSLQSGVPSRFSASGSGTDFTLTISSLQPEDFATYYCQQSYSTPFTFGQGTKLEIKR', 17);

Query: Returns the measured t1/2 for the input binder. Input: H4H12863P (antibody, human IgG4 S228P, kappa, V domains shown, anti-IL2Rgamma mAb expressed with human IgG4 Fc) VH: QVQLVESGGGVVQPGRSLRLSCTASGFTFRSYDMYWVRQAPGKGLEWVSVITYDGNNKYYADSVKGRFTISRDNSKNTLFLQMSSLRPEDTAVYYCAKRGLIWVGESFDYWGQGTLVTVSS VL: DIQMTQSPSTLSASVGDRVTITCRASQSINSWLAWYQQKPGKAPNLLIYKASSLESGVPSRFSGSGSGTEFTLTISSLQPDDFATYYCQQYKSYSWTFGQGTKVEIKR
Reply: 17
